- System: UO-31 renal
- Assay Procedure: NCI-60 one-dose screen, 48 h (100 = growth as untreated, 0 = no growth, -100 = all killed)
- Recorded Conditions: 10 µM unless noted
- Experimental: Growth inhibition of the UO-31 human tumor cell line is measured as a screen for anti-cancer activity. Cells are grown in 96 well plates and exposed to the test compound for 48 hours. Compounds are tested at a single concentration, which is 10^-5 M for most compounds. The reported endpoint is percent growth (GI% or GIPRCNT), where numbers from 0 - 100% represent growth inhibition, and numbers from -100% - 0 represent cell death. For example, a value of 40 represents 60% growth inhibition. […]
This is part of a sample that, as a whole, favours compounds with a hit. Of some 83,000 tested, about 20% had one in any assay.
Attribute Measured: growth (%)
Report the value in % with no unit label.

Observe how each entry below is paired with its result.
>>> df
                                   compound  target_desc  unit_abbreviation  numeric_readout
0  C=CCSSC1N=CNc2nc[nH]c21 (stereo not given)  UO-31 renal                  %             35.7
1  COc1ccc(-c2nc3ccc(-c4nc5ccc(N6CCN(c7ccc(F)cc7)CC6)cc5[nH]4)cc3[nH]2)cc1OC  UO-31 renal                  %               89
2  COc1ccc(CCNc2nc(SC)nc(-c3cccc([N+](=O)[O-])c3)c2C#N)cc1OC  UO-31 renal                  %             84.8
3     Nc1ccc(-c2cc3c(NCc4ccccc4)ncnc3s2)cc1  UO-31 renal                  %             58.5
4  Cc1cc2nc(NC(=O)CN3CCN(CCN4C(=O)c5cccc6cccc(c56)C4=O)CC3)sc2cc1C  UO-31 renal                  %               68

Report growth under test system UO-31 renal for Cc1cc(N2CCOCC2)nc(NCc2cc(Nc3ccnc4cc(Cl)ccc34)ccc2F)n1 .
-50.8

Using UO-31 renal as the test system, report measured growth of COc1ccccc1Nc1nc(-c2cc3cccc(C(F)(F)F)c3oc2=O)cs1 .
52

----------
The following compounds are shown together with reported growth values.
- Test system: SF-295 CNS
- Assay Procedure: NCI-60 one-dose screen, 48 h (100 = growth as untreated, 0 = no growth, -100 = all killed)
- Recorded Conditions: 10 µM unless noted
The panel holds about 83,000 compounds, 20% with a hit somewhere; the sample as a whole holds those more often.
Give a bare numeral; the unit % is implied.

Look over these answered cases.
In [3]: df
Out[3]:
                    structure_smiles_string  unit_abbreviation  numeric_readout
0  O=C(N(c1ccccc1)c1ccccc1)n1ccc2nc(Cl)nc(Cl)c21                  %             74.1
1  COC(=O)c1cccc(NC(=O)c2ccc(-c3cccc(N)c3)o2)c1                  %             98.4
2  CC1=C[C@H]2c3c(c(O)c(O)c4oc5cc(O)ccc5c(=O)c34)[C@H](c3cc(O)c(O)c4oc5cc(O)ccc5c(=O)c34)[C@H]2C(C)(C)C1                  %             21.5

Recall and state the measured growth for COc1cc(C(=O)Oc2ccccc2OC(=O)c2cc(OC)c(OC)c(OC)c2)cc(OC)c1OC .
115

Using known records, supply growth for COc1ccc(C(=O)COc2ccc(/C=C3\Oc4ccc(OC)cc4C3=O)cc2)cc1
81.9

----------
- Tested on: NCI-H322M lung
- Assay Procedure: NCI-60 one-dose screen, 48 h
- Recorded Conditions: 10 µM unless noted
This is part of a sample that, as a whole, favours compounds with a hit. Of some 83,000 tested, about 20% had one in any assay. The source made the active and inactive calls. Rule for the calls: active = growth percent below 10; inactive = the rest.
Assign a class; possible classes are 1 (yes) for active, 0 (no) for inactive

                                   molecule     cat
0  CN1CCN(Cc2ccc(NC(=O)c3cncc(C#Cc4cncn5ccnc45)c3)cc2C(F)(F)F)CC1  0 (no)
1  CSc1nc(Nc2cccc(NC(=O)/C(C#N)=C/c3c(Cl)cccc3Cl)c2)c(C#N)c(-c2cccc([N+](=O)[O-])c2)n1  0 (no)
2  CN(C)[C@@H]1C(=O)C(C(=O)NCc2nc3[nH]cnc(=S)c3[nH]2)=C(O)[C@@]2(O)C(=O)C3=C(O)c4c(O)cccc4[C@@](C)(O)[C@H]3C[C@@H]12  0 (no)
3  O=C(/C=C/c1ccc(C(F)(F)F)cc1)Nc1ccc(C=C2c3ccccc3C(=O)c3ccccc32)cc1  0 (no)
4  O=C1NC(=Nc2ccc(O)cc2)S/C1=C\c1cccc(Cl)c1  0 (no)

How was COc1ccc(-c2cc(-c3ccc(Nc4ccnc5cc(Cl)ccc45)cc3)nc(N3CCOCC3)n2)cc1 classified in this test?
0 (no)

Fill in: this test's call for O=C(Cc1ccccc1Nc1c(Cl)cccc1Cl)NN1C(=O)/C(=C/c2ccc(Br)cc2)SC1=S is ___
0 (no)

So what was the verdict on c1csc(C2=NN3C(C2)c2ccccc2OC3c2ccncc2)c1 (stereo not drawn) in this test?
0 (no)

Which result was noted for this molecule in the test: NC(N)=N/N=C(/c1ccccc1)c1ccc(F)cc1
0 (no)

Per the assay record, what outcome was assigned to COc1cc(-c2ccc3c(c2)NC(=O)/C3=C\c2ccc[nH]2)ccc1O ?
0 (no)

# lookup: test call for C=C1c2nc3ccccc3n2C=C(c2ccc(Cl)cc2)N1Cc1ccc(OC)cc1
0 (no)

Recorded test call requested for CC(C)c1c(C(=O)c2ccccc2)c(-c2ccccc2)c(-c2ccc(F)cc2)n1CC[C@@H](O)C[C@@H](O)CC(=O)O
0 (no)

Tell me the assay call for COc1ccc(-c2nc3ccc(-c4nc5ccc(N6CCN(c7ccc(F)cc7)CC6)cc5[nH]4)cc3[nH]2)cc1OC please.
0 (no)

Which outcome did this test record for the molecule Cn1ccnc1C(=O)/C=C/c1ccc(CC(=O)Nc2ccccc2)cc1 ?
1 (yes)

Which outcome did this test record for the molecule CCCc1cc(=O)n2c(C(=O)Nc3cccc(C(=O)OCC)c3)c(C(=O)Nc3ccc(F)cc3)sc2n1 ?
0 (no)

Test call, this molecule: Brc1ccc(-c2csc(Nc3ccccn3)n2)cc1
0 (no)

So what was the verdict on N=C(N)c1ccc(-c2ccc(-c3ccc4ccccc4c3)s2)s1 in this test?
0 (no)

Which outcome did this test record for the molecule O=C(Nc1ccccc1Cl)c1ccc(NC2=C(Cl)C(=O)N(C3CCCCC3)C2=O)cc1 ?
0 (no)

Tell me the assay call for COc1ccc(/C=C(\C#N)C(=O)Nc2cccc(Nc3nc(SC)nc(-c4cccc([N+](=O)[O-])c4)c3C#N)c2)cc1OC please.
0 (no)

What call does the record list for CNc1ccc(-c2cc(=O)oc3ccc(Cl)cc23)cc1 ?
0 (no)

----------
- Tested on: HCC-2998 colon
- Assay Procedure: NCI-60 one-dose screen, 48 h (100 = growth as untreated, 0 = no growth, -100 = all killed)
- Recorded Conditions: 10 µM unless noted
Compounds without any hit were thinned out: in the full panel of roughly 83,000, 20% have a hit. The source made the active and inactive calls. The calls were made as follows: active = growth percent below 10; inactive = the rest.
Attribute Measured: growth

Study these solved cases before continuing.
In [3]: df
Out[3]:
                                   compound  attribute_measured            result
0  Cc1cc(N2CCN(c3ccnc4cc(Cl)ccc34)CC2)nc(N2CCOCC2)n1              growth    89% (inactive)
1  CN1CCN(Cc2ccc(NC(=O)c3cncc(C#Cc4cncn5ccnc45)c3)cc2C(F)(F)F)CC1              growth  47.6% (inactive)
2  COc1ccc(/C=C/C(=O)c2ccc(O)c(CN3CCN(c4cc5c(cc4F)c(=O)c(C(=O)O)cn5C4CC4)CC3)c2)cc1              growth  43.5% (inactive)
3  O=C(Cc1ccccc1Nc1c(Cl)cccc1Cl)NN1C(=O)/C(=C/c2ccc(Br)cc2)SC1=S              growth   106% (inactive)
4  CN1CCN(c2nc(NCCCCNc3ccnc4cc(Cl)ccc34)c3ccccc3n2)CC1              growth  57.4% (inactive)
5  O=C1c2cc3c(cc2-c2c1c1ccc(Cl)cc1c(=O)n2CCCN1CCOCC1)OCO3              growth  74.4% (inactive)

Now for the compound whose growth we want.
Give the measured growth for COc1ccc(C2Nc3c(c(C(C)(C)C)nn3-c3ccccc3)C(=O)CS2)cc1 (stereo unspecified)
102% (inactive)

----------
- Test system: HCT-15 colon
- Assay Procedure: NCI-60 one-dose screen, 48 h
- Recorded Conditions: 10 µM unless noted
The panel holds about 83,000 compounds, 20% with a hit somewhere; the sample as a whole holds those more often. Activity calls are given as the source filed them. Rule for the calls: active = growth percent below 10; inactive = the rest.
Result category, one only: active, inactive

Examples from the recorded data:
Compound	Cat
CC(=O)c1cc(C(=O)c2ccc3c(c2)Sc2ccccc2N3)n2ccccc12	inactive
NCCNc1nc(Nc2ccc(-c3nc4ccccc4[nH]3)cc2)c2cn[nH]c2n1	inactive
C/C1=C\CC[C@@]2(C)O[C@H]2[C@H]2OC(=O)C(CN3CCN(CC4C(=O)O[C@H]5[C@H]4CC/C(C)=C/CC[C@@]4(C)O[C@@H]54)CC3)[C@@H]2CC1 (some centres undefined)	inactive
CC(=O)O[C@H]1CC[C@]2(C)[C@H]3CC=C4[C@@H]5CC(C)(C)CC[C@]5(C(=O)NCCNCCN)CC[C@@]4(C)[C@]3(C)CC[C@H]2C1(C)C	active
COc1ccc(/C=N/C2=C(C#N)C(c3ccc(N(C)C)cc3)c3ccc4ccccc4c3O2)cc1 (centres undefined)	inactive

// return assay outcome for CCOC(=O)n1cc(-c2nonc2-c2cn(C)c3ncccc23)c2ccccc21
inactive

Assay outcome for Cc1cc(N2CCN(c3ccnc4cc(Cl)ccc34)CC2)nc(N2CCOCC2)n1 : what was it?
inactive

# fetch the recorded call for COc1ccc(/C=C2\Oc3cc(OCCCCN4CCCC4)ccc3C2=O)cc1 here
active

What did this assay record as the result for COc1cccc(-c2nn(C(C)(C)C)cc2-c2ccnc(NCCCNS(=O)(=O)c3cccc4ccccc34)c2)c1 ?
inactive

How did this test come out for O=C1c2c(O)cc(O)cc2-c2c(-c3ccc(O)cc3)oc3cc(O)cc1c23 ?
inactive
